target: DENV NS3h (Dengue virus type 2); assay type: biochemical; settings: read-out: DENV RNA-helicase IC50; DENV NS3h RNA unwinding; 100 nM DENV helicase
ASSAY_ENDPOINT: pIC50
Friendly reminder that pIC50 comes from taking -log10 of the concentration in mol/L.

Consider the worked cases shown below.
Summary for this compound, Cc1ccc2nc(-c3ccc4nc(-c5ccc(NC(=O)c6ccc(Cl)c(Cl)c6)cc5)sc4c3)sc2c1S(=O)(=O)O [compound 14] : pIC50 is 5.44

Summary for this compound, Cc1ccc2nc(-c3ccc4nc(-c5ccc(NC(=O)c6ccc(Br)cc6)cc5)sc4c3)sc2c1S(=O)(=O)O [compound 11] : pIC50 is 5.30

Let us move to another entry and its pIC50.
Summary for this compound, COC(=O)c1ccc(C(=O)Nc2ccc(-c3nc4ccc(-c5nc6ccc(C)c(S(=O)(=O)O)c6s5)cc4s3)cc2)cc1.N [compound 5] : pIC50 is 5.10

###

biological target: UniProt:Q91H74; assay type: biochemical; details: read-out: DENV RNA-helicase IC50; DENV NS3h RNA unwinding; 100 nM DENV helicase
ASSAY_ENDPOINT: IC50 (µM)
Kindly provide the numeric value in µM only, without the unit symbol.

Consider the worked cases shown below.
# IC50 measured on UniProt:Q91H74 for item Cc1ccc2nc(-c3ccc4nc(-c5ccc(NC(=O)c6ccc(NC(=O)OCC7c8ccccc8-c8ccccc87)cc6)cc5)sc4c3)sc2c1S(=O)(=O)O [compound 12] = 3.5

# IC50 measured on UniProt:Q91H74 for item Cc1ccc(C(=O)Nc2ccc(-c3nc4ccc(-c5nc6ccc(C)c(S(=O)(=O)O)c6s5)cc4s3)cc2)cc1 [compound 7] = 4.3

Further cases:
# IC50 measured on UniProt:Q91H74 for item Cc1ccc2nc(-c3ccc4nc(-c5ccc(NC(=O)c6ccc7nc(-c8ccc(N)cc8)sc7c6)cc5)sc4c3)sc2c1S(=O)(=O)O.N [compound 24] = 1.5

###

target: DENV NS3h (Dengue virus type 2, UniProt Q91H74); type: biochemical; settings: read-out: DENV RNA-helicase IC50; DENV NS3h RNA unwinding; 100 nM DENV helicase
Sequence (Q91H74 1646-2093 limits assumed): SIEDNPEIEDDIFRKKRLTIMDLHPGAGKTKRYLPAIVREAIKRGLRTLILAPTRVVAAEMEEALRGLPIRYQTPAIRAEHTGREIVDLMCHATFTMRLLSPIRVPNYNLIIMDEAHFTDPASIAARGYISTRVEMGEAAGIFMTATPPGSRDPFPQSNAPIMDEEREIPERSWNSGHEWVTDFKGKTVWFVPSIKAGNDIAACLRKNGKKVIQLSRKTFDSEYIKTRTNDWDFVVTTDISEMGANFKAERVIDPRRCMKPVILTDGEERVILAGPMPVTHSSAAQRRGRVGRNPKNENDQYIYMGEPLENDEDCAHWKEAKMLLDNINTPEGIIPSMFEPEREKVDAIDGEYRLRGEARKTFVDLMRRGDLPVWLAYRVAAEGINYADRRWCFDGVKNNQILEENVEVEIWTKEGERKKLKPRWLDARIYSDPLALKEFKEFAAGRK
pIC50 by entry:
Friendly reminder that pIC50 comes from taking -log10 of the concentration in mol/L.

Consider the worked cases shown below.
Summary for this compound, Cc1ccc2nc(-c3ccc4nc(-c5ccc(NC(=O)c6ccc(Cl)cc6)cc5)sc4c3)sc2c1S(=O)(=O)O : pIC50 is 5.25

Summary for this compound, Cc1ccc2nc(-c3ccc4nc(-c5ccc(NC(=O)c6ccc(C(F)(F)F)cc6)cc5)sc4c3)sc2c1S(=O)(=O)O : pIC50 is 5.28

Summary for this compound, Cc1ccc2nc(-c3ccc4nc(-c5ccc(NC(=O)c6cc(C(F)(F)F)ccc6F)cc5)sc4c3)sc2c1S(=O)(=O)O : pIC50 is 5.27

Further cases:
Summary for this compound, Cc1ccc2nc(-c3ccc4nc(-c5ccc(NC(=O)c6ccc(N)cc6)cc5)sc4c3)sc2c1S(=O)(=O)O : pIC50 is 5.12

###

biological target: HCV NS3h (Hepatitis C virus genotype 1b); assay: HCV NS3h-catalyzed ATP hydrolysis assay; type: biochemical; conditions: read-out: HCV ATPase IC50
Binary label based on IC50 with cut-off 70 µM: below gives YES, not below gives NO.

Worked set:
Problem: Bench note: check whether COc1ccc(C(=O)Nc2ccc(-c3nc4ccc(-c5nc6ccc(C)c(S(=O)(=O)O)c6s5)cc4s3)cc2)cc1 shows IC50 below 70 µM
Solution: NO

Problem: Bench note: check whether Cc1ccc2nc(-c3ccc4nc(-c5ccc(NC(=O)c6ccc(C(F)(F)F)cc6)cc5)sc4c3)sc2c1S(=O)(=O)O shows IC50 below 70 µM
Solution: NO

Problem: Bench note: check whether Cc1ccc2nc(-c3ccc4nc(-c5ccc(NC(=O)c6ccc(N)cc6)cc5)sc4c3)sc2c1S(=O)(=O)O shows IC50 below 70 µM
Solution: YES

Further cases:
Problem: Bench note: check whether Cc1ccc2nc(-c3ccc4nc(-c5ccc(NC(=O)c6ccc(C(C)(C)C)cc6)cc5)sc4c3)sc2c1S(=O)(=O)O shows IC50 below 70 µM
Solution: NO

Problem: Bench note: check whether Cc1ccc2nc(-c3ccc4nc(-c5ccc(NC(=O)c6ccc(F)cc6)cc5)sc4c3)sc2c1S(=O)(=O)O shows IC50 below 70 µM
Solution: YES

Problem: Bench note: check whether Cc1ccc2nc(-c3ccc4nc(-c5ccc(NC(=O)c6cc(C(F)(F)F)cc(C(F)(F)F)c6)cc5)sc4c3)sc2c1S(=O)(=O)O.N shows IC50 below 70 µM
Solution: NO

Problem: Bench note: check whether Cc1ccc2nc(-c3ccc4nc(-c5ccc(NC(=O)c6ccc(C(F)(F)F)c(F)c6)cc5)sc4c3)sc2c1S(=O)(=O)O shows IC50 below 70 µM
Solution: YES

Problem: Bench note: check whether Cc1ccc2nc(-c3ccc4nc(-c5ccc(NC(=O)c6cccc(C(F)(F)F)c6)cc5)sc4c3)sc2c1S(=O)(=O)O shows IC50 below 70 µM
Solution: NO

###

IC50 by entry:
target: HCV NS3h (Hepatitis C virus genotype 1b, UniProt Q9WMX2); experiment: HCV NS3h-catalyzed ATP hydrolysis assay; type: biochemical; details: read-out: HCV ATPase IC50
Sequence (Q9WMX2 1192-1657): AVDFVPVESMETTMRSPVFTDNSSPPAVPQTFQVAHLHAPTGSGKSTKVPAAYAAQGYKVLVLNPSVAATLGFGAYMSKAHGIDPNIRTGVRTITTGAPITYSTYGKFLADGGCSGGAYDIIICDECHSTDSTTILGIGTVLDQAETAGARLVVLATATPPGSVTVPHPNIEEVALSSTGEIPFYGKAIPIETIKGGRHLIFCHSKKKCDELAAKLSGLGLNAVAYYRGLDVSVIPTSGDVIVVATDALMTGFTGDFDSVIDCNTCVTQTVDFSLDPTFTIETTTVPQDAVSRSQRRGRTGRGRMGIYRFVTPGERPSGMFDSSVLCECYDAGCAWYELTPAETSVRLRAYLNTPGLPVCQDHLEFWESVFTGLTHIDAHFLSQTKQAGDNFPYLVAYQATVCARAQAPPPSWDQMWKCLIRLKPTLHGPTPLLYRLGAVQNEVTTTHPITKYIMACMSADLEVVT
Kindly provide the numeric value in µM only, without the unit symbol.

Summary for this compound, Cc1ccc2nc(-c3ccc4nc(-c5ccc(NC(=O)c6ccc(Cl)c(Cl)c6)cc5)sc4c3)sc2c1S(=O)(=O)O : IC50 is 53

Summary for this compound, Cc1ccc2nc(-c3ccc4nc(-c5ccc(NC(=O)c6ccc(Br)cc6)cc5)sc4c3)sc2c1S(=O)(=O)O : IC50 is 21

Summary for this compound, Cc1ccc2nc(-c3ccc4nc(-c5ccc(NC(=O)c6cc(C(F)(F)F)ccc6F)cc5)sc4c3)sc2c1S(=O)(=O)O : IC50 is 16

Summary for this compound, Cc1ccc(C(=O)Nc2ccc(-c3nc4ccc(-c5nc6ccc(C)c(S(=O)(=O)O)c6s5)cc4s3)cc2)cc1 : IC50 is 61

Summary for this compound, Cc1ccc2nc(-c3ccc4nc(-c5ccc(NC(=O)c6cccc(Cl)c6)cc5)sc4c3)sc2c1S(=O)(=O)O : IC50 is 24

Let us move to another entry and its IC50.
Summary for this compound, Cc1ccc2nc(-c3ccc4nc(-c5ccc(NC(=O)c6cccc(C(F)(F)F)c6F)cc5)sc4c3)sc2c1S(=O)(=O)O : IC50 is 42

###

target: HCV NS3h (Hepatitis C virus genotype 1b); assay: HCV NS3h RNA unwinding assay; assay type: biochemical; conditions: read-out: HCV RNA-helicase IC50, values without asterisk
pIC50: −log10 of the molar value.
Label condition met when pIC50 is at or above 5; otherwise label condition not met.

Worked set:
Problem: Hi team, for Cc1ccc2nc(-c3ccc4nc(-c5ccc(NC(=O)c6ccc(Cl)cc6)cc5)sc4c3)sc2c1S(=O)(=O)O , is the recorded pIC50 at or above 5?
Solution: condition met

Problem: Hi team, for Cc1ccc2nc(-c3ccc4nc(-c5ccc(NC(=O)c6ccc(C(F)(F)F)cc6)cc5)sc4c3)sc2c1S(=O)(=O)O , is the recorded pIC50 at or above 5?
Solution: condition met

Problem: Hi team, for Cc1ccc2nc(-c3ccc4nc(-c5ccc(NC(=O)c6cccc(Cl)c6)cc5)sc4c3)sc2c1S(=O)(=O)O , is the recorded pIC50 at or above 5?
Solution: condition met

Problem: Hi team, for Cc1ccc2nc(-c3ccc4nc(-c5ccc(NC(=O)c6ccc(NC(=O)OCC7c8ccccc8-c8ccccc87)cc6)cc5)sc4c3)sc2c1S(=O)(=O)O , is the recorded pIC50 at or above 5?
Solution: condition met

Further cases:
Problem: Hi team, for Cc1ccc2nc(-c3ccc4nc(-c5ccc(NC(=O)c6c(F)cccc6C(F)(F)F)cc5)sc4c3)sc2c1S(=O)(=O)O , is the recorded pIC50 at or above 5?
Solution: condition not met

Problem: Hi team, for Cc1ccc2nc(-c3ccc4nc(-c5ccc(NC(=O)c6cccc(C(F)(F)F)c6)cc5)sc4c3)sc2c1S(=O)(=O)O , is the recorded pIC50 at or above 5?
Solution: condition not met

Problem: Hi team, for Cc1ccc2nc(-c3ccc4nc(-c5ccc(NC(=O)c6ccc7nc(-c8ccc(N)cc8)sc7c6)cc5)sc4c3)sc2c1S(=O)(=O)O.N , is the recorded pIC50 at or above 5?
Solution: condition met

Problem: Hi team, for Cc1ccc2nc(-c3ccc4nc(-c5ccc(NC(=O)c6ccccc6C(F)(F)F)cc5)sc4c3)sc2c1S(=O)(=O)O , is the recorded pIC50 at or above 5?
Solution: condition not met

Problem: Hi team, for Cc1ccc(C(=O)Nc2ccc(-c3nc4ccc(-c5nc6ccc(C)c(S(=O)(=O)O)c6s5)cc4s3)cc2)cc1 , is the recorded pIC50 at or above 5?
Solution: condition met

Problem: Hi team, for Cc1ccc2nc(-c3ccc4nc(-c5ccc(NC(=O)c6ccc(C(F)(F)F)c(F)c6)cc5)sc4c3)sc2c1S(=O)(=O)O , is the recorded pIC50 at or above 5?
Solution: condition met

Entry source: paper PMC4444071
